pIC50: −log10 of the molar value.
// cross-study collection: pIC50 for DNA (cytosine-5)-methyltransferase 1 (Homo sapiens, UniProt P26358)
measured_property: pIC50

O=C(Cn1cc(-c2ccc(O)cc2)c2cc(F)ccc21)c1ccc(O)cc1 ... 4.23
COc1cc(OC)c2c(-c3ccc(O)cc3)cn(CC(=O)c3ccc(O)cc3)c2c1 ... 4.55

[A] O=C(Nc1ccc(SC2CNC(C(=O)O)C2)cc1)c1ccc(Nc2ccnc3ccccc23)cc1 (stereo not shown)
[B] COc1cc(OC)c2c(-c3ccc(O)c(O)c3O)cn(CC(=O)c3ccc(O)c(O)c3O)c2c1
[C] N#Cc1c(SC(C(N)=O)c2ccccc2)nc(N2CCNC(=O)C2)c(C#N)c1C1CC1 (stereo not shown)
(Q) Put the entries in order of pIC50, starting with the largest number. Hello, could you send the labels back in the order asked? Thank you.
(A) C, A, B
